Source of measurements: PubChem BioAssay AID1259407

# System: CCRIS mutagenicity, Ames/micronucleus/aberration tests
# method notes: CCRIS mutagenicity studies
# conditions: Test System: AMES SALMONELLA TYPHIMURIUM; Strain/Indicator: TA100; Metabolic Activation: HAMSTER, LIVER, S-9, AROCLOR 1254 (10%); Method: PREINCUBATION
Calls of active or inactive are those of the source. No rule for the calls is given here.
Labels: active, inactive

compound="CC(O)CN(CC(C)O)CC(C)O (configuration not stated)" qualitative_label=inactive
compound=COc1cc(/C=C/C(=O)CC(=O)/C=C/c2ccc(O)c(OC)c2)ccc1O qualitative_label=inactive
compound=CCCCNCC qualitative_label=inactive
compound=COCCOCCOC qualitative_label=inactive
compound=CN(C)c1ccc(N(C)C)cc1 qualitative_label=active
compound=Cc1cc(-c2ccc(N)c(C)c2)ccc1N qualitative_label=inactive
compound=CC(C)(c1cc(Br)c(O)c(Br)c1)c1cc(Br)c(O)c(Br)c1 qualitative_label=inactive
compound=CCCCCN qualitative_label=inactive
compound=Cc1ccc(C)c(N)c1 qualitative_label=active
compound=CC(C)(C)C(=O)C1C(=O)c2ccccc2C1=O qualitative_label=inactive
compound=C=CC(=O)OCC(CO)(COC(=O)C=C)COC(=O)C=C qualitative_label=inactive
compound=C=CC(=O)OC qualitative_label=inactive
